- ASSAY_TARGET: hGLP-1R (Homo sapiens, UniProt P43220)
- Sequence (P43220 24-463): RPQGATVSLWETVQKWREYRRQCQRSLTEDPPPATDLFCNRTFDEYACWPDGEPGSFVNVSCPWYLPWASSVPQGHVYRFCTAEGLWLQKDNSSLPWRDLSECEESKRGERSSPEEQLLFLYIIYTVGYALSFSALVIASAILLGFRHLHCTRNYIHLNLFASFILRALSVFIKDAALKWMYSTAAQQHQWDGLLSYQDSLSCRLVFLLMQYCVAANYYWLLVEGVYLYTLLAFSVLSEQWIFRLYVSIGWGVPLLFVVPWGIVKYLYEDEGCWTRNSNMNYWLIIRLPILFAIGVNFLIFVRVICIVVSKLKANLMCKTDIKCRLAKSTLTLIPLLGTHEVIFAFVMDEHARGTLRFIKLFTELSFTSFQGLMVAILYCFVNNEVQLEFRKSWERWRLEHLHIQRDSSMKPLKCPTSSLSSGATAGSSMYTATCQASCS
- RUN_DESCRIPTION: cell-based or functional assay
Decision: cAMP Rel EC50, nM (in the presence of 1% HSA) >= 600 nM yields class 1, all other cases yield class 0.

Record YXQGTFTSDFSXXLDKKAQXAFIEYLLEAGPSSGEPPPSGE (synthetic construct; SITE 2: note = 2-Aminoisobutyric Acid; SITE 12: note = L-ornithine; SITE 13: note = alpha-methyl-leucine; SITE 17: note = Lysine is chemically modified through conjugation of the epsilon-amino group of the Lysine side chain with (2-[2-(2-Amino-ethoxy)-ethoxy]-acetyl)2-(gamma-Glu)) [Example 117] ; criterion: cAMP Rel EC50, nM (in the presence of 1% HSA) no lower than 600 nM. Met?
class 0

Record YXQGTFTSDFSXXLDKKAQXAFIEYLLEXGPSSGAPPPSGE (synthetic construct; SITE 2: note = 2-Aminoisobutyric Acid; SITE 12: note = L-ornithine; SITE 13: note = alpha-methyl-leucine; SITE 17: note = Lysine is chemically modified through conjugation of the epsilon-amino group of the Lysine side chain with (2-[2-(2-Amino-ethoxy)-ethoxy]-acetyl)-(gamma-Glu)) [Example 110] ; criterion: cAMP Rel EC50, nM (in the presence of 1% HSA) no lower than 600 nM. Met?
class 1

Record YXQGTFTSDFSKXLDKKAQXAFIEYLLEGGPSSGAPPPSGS (synthetic construct; SITE 2: note = 2-Aminoisobutyric Acid; SITE 13: note = alpha-methyl-leucine; SITE 17: note = Lysine is chemically modified through conjugation of the epsilon-amino group of the Lysine side chain with (2-[2-(2-Amino-ethoxy)-ethoxy]-acetyl)-(gamma-Glu)-CO-(CH2) 16-CO2H; SITE 20: n) [Example 141] ; criterion: cAMP Rel EC50, nM (in the presence of 1% HSA) no lower than 600 nM. Met?
class 0

Record YXQGTFTSDFSKXLDKKAQXAFIEYLLEGGESSGAPPPSGS (synthetic construct; SITE 2: note = 2-Aminoisobutyric Acid; SITE 13: note = alpha-methyl-leucine; SITE 17: note = Lysine is chemically modified through conjugation of the epsilon-amino group of the Lysine side chain with (2-[2-(2-Amino-ethoxy)-ethoxy]-acetyl)-(gamma-Glu)-CO-(CH2) 16-CO2H; SITE 20: n) [Example 146] ; criterion: cAMP Rel EC50, nM (in the presence of 1% HSA) no lower than 600 nM. Met?
class 1

Record YXQGTFTSDFSXXLDKKAQXAFIEWLLEGGESSGAPPPEGS (synthetic construct; SITE 2: note = 2-Aminoisobutyric Acid; SITE 12: note = L-ornithine; SITE 13: note = alpha-methyl-leucine; SITE 17: note = Lysine is chemically modified through conjugation of the epsilon-amino group of the Lysine side chain with (2-[2-(2-Amino-ethoxy)-ethoxy]-acetyl)-(gamma-Glu)) [Example 125] ; criterion: cAMP Rel EC50, nM (in the presence of 1% HSA) no lower than 600 nM. Met?
class 1

Record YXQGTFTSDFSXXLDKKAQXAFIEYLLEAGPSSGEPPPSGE (synthetic construct; SITE 2: note = 2-Aminoisobutyric Acid; SITE 12: note = L-ornithine; SITE 13: note = alpha-methyl-leucine; SITE 17: note = Lysine is chemically modified through conjugation of the epsilon-amino group of the Lysine side chain with (2-[2-(2-Amino-ethoxy)-ethoxy]-acetyl)-(gamma-Glu)) [Example 135] ; criterion: cAMP Rel EC50, nM (in the presence of 1% HSA) no lower than 600 nM. Met?
class 0

Record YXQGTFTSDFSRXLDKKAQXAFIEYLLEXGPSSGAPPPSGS (synthetic construct; SITE 2: note = 2-Aminoisobutyric Acid; SITE 13: note = alpha-methyl-leucine; SITE 17: note = Lysine is chemically modified through conjugation of the epsilon-amino group of the Lysine side chain with (2-[2-(2-Amino-ethoxy)-ethoxy]-acetyl)-(gamma-Glu)-CO-(CH2) 16-CO2H; SITE 20: n) [Example 79] ; criterion: cAMP Rel EC50, nM (in the presence of 1% HSA) no lower than 600 nM. Met?
class 0

Record YXQGTFTSDXSRXLDKKAQXAFIEYLLAGGPSSGAPPPSGE (synthetic construct; SITE 2: note = 2-Aminoisobutyric Acid; SITE 10: note = 3-(4-Pyridyl)-L-alanine; SITE 13: note = alpha-methyl-leucine; SITE 17: note = Lysine is chemically modified through conjugation of the epsilon-amino group of the Lysine side chain with (2-[2-(2-Amino-ethoxy)-ethoxy]-acetyl)) [Example 113] ; criterion: cAMP Rel EC50, nM (in the presence of 1% HSA) no lower than 600 nM. Met?
class 0

Record YXQGTFTSDFSXXLDKKAQXAFIEWLLEGGHSSGEPPPEGS (synthetic construct; SITE 2: note = 2-Aminoisobutyric Acid; SITE 12: note = L-ornithine; SITE 13: note = alpha-methyl-leucine; SITE 17: note = Lysine is chemically modified through conjugation of the epsilon-amino group of the Lysine side chain with (2-[2-(2-Amino-ethoxy)-ethoxy]-acetyl)-(gamma-Glu)) [Example 127] ; criterion: cAMP Rel EC50, nM (in the presence of 1% HSA) no lower than 600 nM. Met?
class 1

Record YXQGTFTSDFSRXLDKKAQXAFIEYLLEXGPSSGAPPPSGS (synthetic construct; SITE 2: note = 2-Aminoisobutyric Acid; SITE 13: note = alpha-methyl-leucine; SITE 17: note = Lysine is chemically modified through conjugation of the epsilon-amino group of the Lysine side chain with (2-[2-(2-Amino-ethoxy)-ethoxy]-acetyl)2-(gamma-Glu)-CO-(CH2 )16-CO2H; SITE 20:) [Example 80] ; criterion: cAMP Rel EC50, nM (in the presence of 1% HSA) no lower than 600 nM. Met?
class 1

Record YXQGTFTSDFSXXLDKKAQXAFIEWLLEGGPSSGAXPPSGE (synthetic construct; SITE 2: note = 2-Aminoisobutyric Acid; SITE 12: note = L-ornithine; SITE 13: note = alpha-methyl-leucine; SITE 17: note = Lysine is chemically modified through conjugation of the epsilon-amino group of the Lysine side chain with (2-[2-(2-Amino-ethoxy)-ethoxy]-acetyl)-(gamma-Glu)) [Example 136] ; criterion: cAMP Rel EC50, nM (in the presence of 1% HSA) no lower than 600 nM. Met?
class 1

Record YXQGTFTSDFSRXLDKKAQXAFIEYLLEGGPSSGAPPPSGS (synthetic construct; SITE 2: note = 2-Aminoisobutyric Acid; SITE 13: note = alpha-methyl-leucine; SITE 17: note = Lysine is chemically modified through conjugation of the epsilon-amino group of the Lysine side chain with (2-[2-(2-Amino-ethoxy)-ethoxy]-acetyl)2-(gamma-Glu)-CO-(CH2 )16-CO2H; SITE 20:) [Example 144] ; criterion: cAMP Rel EC50, nM (in the presence of 1% HSA) no lower than 600 nM. Met?
class 1
